- measurement.target: αIIbβ3 (Homo sapiens, UniProt P05106+P08514)
- Sequence (P08514 32-887 limits assumed): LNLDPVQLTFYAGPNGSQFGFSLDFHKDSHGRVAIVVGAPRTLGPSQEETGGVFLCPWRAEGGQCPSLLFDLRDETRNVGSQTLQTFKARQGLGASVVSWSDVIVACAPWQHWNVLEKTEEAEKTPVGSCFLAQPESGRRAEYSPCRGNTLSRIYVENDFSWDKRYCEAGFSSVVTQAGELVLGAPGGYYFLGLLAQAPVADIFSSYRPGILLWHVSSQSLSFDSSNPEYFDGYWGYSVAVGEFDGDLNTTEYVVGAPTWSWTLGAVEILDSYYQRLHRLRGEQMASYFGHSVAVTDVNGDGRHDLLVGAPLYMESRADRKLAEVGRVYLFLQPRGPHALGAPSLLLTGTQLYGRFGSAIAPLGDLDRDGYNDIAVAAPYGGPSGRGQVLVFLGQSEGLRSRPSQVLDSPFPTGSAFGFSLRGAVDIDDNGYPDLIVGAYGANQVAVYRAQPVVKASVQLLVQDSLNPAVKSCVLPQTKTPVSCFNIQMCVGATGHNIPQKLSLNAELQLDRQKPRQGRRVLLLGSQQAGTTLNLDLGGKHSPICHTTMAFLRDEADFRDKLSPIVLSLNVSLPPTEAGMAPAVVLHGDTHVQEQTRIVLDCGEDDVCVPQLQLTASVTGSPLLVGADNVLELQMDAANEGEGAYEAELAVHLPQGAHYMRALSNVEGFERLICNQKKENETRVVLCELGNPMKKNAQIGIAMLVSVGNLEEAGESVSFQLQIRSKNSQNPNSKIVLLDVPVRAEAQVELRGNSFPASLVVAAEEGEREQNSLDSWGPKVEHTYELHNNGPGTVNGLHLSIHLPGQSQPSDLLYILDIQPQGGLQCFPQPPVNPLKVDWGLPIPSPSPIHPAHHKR
- Sequence (P08514 891-1039 partner limits assumed): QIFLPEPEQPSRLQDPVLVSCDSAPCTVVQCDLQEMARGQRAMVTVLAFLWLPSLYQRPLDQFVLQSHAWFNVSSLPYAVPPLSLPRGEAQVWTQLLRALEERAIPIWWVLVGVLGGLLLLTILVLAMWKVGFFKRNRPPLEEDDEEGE
- Sequence (P05106 27-788): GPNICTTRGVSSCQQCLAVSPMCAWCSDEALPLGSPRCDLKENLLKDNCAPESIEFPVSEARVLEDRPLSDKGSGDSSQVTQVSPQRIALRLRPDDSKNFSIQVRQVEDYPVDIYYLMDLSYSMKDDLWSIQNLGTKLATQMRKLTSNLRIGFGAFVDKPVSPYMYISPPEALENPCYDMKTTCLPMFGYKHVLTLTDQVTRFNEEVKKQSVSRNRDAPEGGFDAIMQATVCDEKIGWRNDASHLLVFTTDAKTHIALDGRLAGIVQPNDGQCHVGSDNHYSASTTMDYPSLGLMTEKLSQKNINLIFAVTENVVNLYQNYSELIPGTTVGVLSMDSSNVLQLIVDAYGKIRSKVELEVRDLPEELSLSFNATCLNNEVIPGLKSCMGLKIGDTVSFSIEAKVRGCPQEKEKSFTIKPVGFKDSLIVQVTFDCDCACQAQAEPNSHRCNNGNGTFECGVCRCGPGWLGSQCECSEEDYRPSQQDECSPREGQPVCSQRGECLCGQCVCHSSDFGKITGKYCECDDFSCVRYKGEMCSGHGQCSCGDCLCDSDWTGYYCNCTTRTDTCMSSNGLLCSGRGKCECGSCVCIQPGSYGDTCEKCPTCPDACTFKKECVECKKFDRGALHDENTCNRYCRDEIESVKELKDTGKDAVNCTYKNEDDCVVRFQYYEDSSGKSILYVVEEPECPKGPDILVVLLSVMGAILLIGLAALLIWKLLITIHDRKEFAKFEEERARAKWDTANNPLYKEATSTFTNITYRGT
- method.description: Platelet adhesion to fibrinogen at different Mg2+ concentrations
- Assay type: cell-based
- details: IC50, platelet adhesion to fibrinogen, 20 mM Mg2+, 1 mM Ca2+; mean ± SD, three experiments
value.type: pIC50
Recall that pIC50 is obtained by taking minus log10 of the concentration measured in molar.

Prompt: Give αIIbβ3 (Homo sapiens, UniProt P05106+P08514) pIC50 for NCC(=O)Nc1cccc(-c2nn3c(=O)cc(N4CCNCC4)nc3s2)c1
Completion: 6.04

----------
- measurement.target: αIIbβ3 (Homo sapiens, UniProt P05106+P08514)
- method.description: ADP-induced platelet aggregation of platelet-rich plasma
- Format: cell-based
value.type: IC50 (nM)
Give your result in nM as a bare value.

Prompt: Can you look up the measured IC50 of NCC(=O)Nc1cccc(-c2nn3c(=O)cc(N4CCNCC4)nc3s2)c1 [RUC-2] for me?
Completion: 220

Values were extracted from paper PMC3390238.
